Data origin, for the record: patent US9447120B2

experiment: Determination of the hygroscopicity (weight increase in a stability chamber); type: physicochemical; settings: Table 6; time 2 h; 25° C., 65% relative air humidity
Quick rule for you: Mean mass increase under 0.6% gets MET, anything else gets NOT MET.

Illustrative cases are given below, each with its answer.
{"compound": "O=C([O-])CN(CCN(CC(=O)[O-])CC(=O)[O-])CCN(CC(=O)[O-])CC(=O)[O-].[Na+].[Na+].[Na+].[Zn+2] [Amorph Il]", "assigned category": "NOT MET"}
{"compound": "O=C([O-])CN(CCN(CC(=O)[O-])CC(=O)[O-])CCN(CC(=O)[O-])CC(=O)[O-].[Na+].[Na+].[Na+].[Zn+2] [Form II, A]", "assigned category": "MET"}

Ask | # strict comparison: is reported Mean mass increase < 0.6%? input = O=C([O-])CN(CCN(CC(=O)[O-])CC(=O)[O-])CCN(CC(=O)[O-])CC(=O)[O-].[Na+].[Na+].[Na+].[Zn+2] [Form I]
Reply | MET

Ask | # strict comparison: is reported Mean mass increase < 0.6%? input = O=C([O-])CN(CCN(CC(=O)[O-])CC(=O)[O-])CCN(CC(=O)[O-])CC(=O)[O-].[Na+].[Na+].[Na+].[Zn+2] [Amorph I]
Reply | NOT MET

Ask | # strict comparison: is reported Mean mass increase < 0.6%? input = O=C([O-])CN(CCN(CC(=O)[O-])CC(=O)[O-])CCN(CC(=O)[O-])CC(=O)[O-].[Na+].[Na+].[Na+].[Zn+2] [Form II, B]
Reply | NOT MET
